# Tested on: T47D
# ASSAY_REMARKS: NCI tumour cell line growth inhibition, 48 h
Calls of active or inactive are those of the source. Rule as the data show it: active = GI50 up to about 1.1 µM and inactive = higher.
Result category, one only: label 1 for active, label 0 for inactive

Q: // param item: COC(=O)C12OCC34C(CC5C(C)=C(O)C(=O)CC5(C)C3C(O)C1O)OC(=O)C(OC(=O)C=C(C)C)C24 (configuration not stated) ; yields the recorded call
Result: label 1

Q: // param item: Nc1cc2ncnc(Nc3cccc(Br)c3)c2cn1 ; yields the recorded call
Result: label 0

Q: // param item: ClCCN(CCCl)c1ccc(CNCCCNCc2ccc(N(CCCl)CCCl)cc2)cc1 ; yields the recorded call
Result: label 0

Q: // param item: Cc1c(OCc2cccc3ccccc23)ccc2c(O)cc(=S)oc12 ; yields the recorded call
Result: label 0

Q: // param item: Cc1ccc(S(=O)(=O)N/N=C2/CC[C@H](C(C)(C)C)C[C@@H]2C)cc1 ; yields the recorded call
Result: label 0

Q: // param item: Nc1nc(-c2ccccc2/N=N/N2CCCC2)nc2ccccc12 ; yields the recorded call
Result: label 0

Q: // param item: COC(=O)[C@@H]1Cc2cc(O)c(O)cc2C2(CCN(C)CC2)O1 ; yields the recorded call
Result: label 0

Q: // param item: C[C@]12CC[C@H](O)CC1=CC[C@@H]1[C@@H]2CC[C@]2(C)c3nc(Cl)ccc3C[C@@H]12 ; yields the recorded call
Result: label 0

Q: // param item: CC(=O)N1c2ccccc2C(C)(C)OC1C(Cl)(Cl)Cl (configuration not stated) ; yields the recorded call
Result: label 0

Q: // param item: OCCSCc1ccccc1 ; yields the recorded call
Result: label 0

Q: // param item: O=c1[nH]c(=O)n(COCc2ccccc2)c2ccsc12 ; yields the recorded call
Result: label 0

Q: // param item: COc1ccc(C2C3CCc4ccccc4C3=NN2S(=O)(=O)c2ccc(/C=C/C(=O)O)cc2)cc1 (configuration not stated) ; yields the recorded call
Result: label 0

Q: // param item: CCOC(=O)Nn1c(C)nnc1-c1ccccc1 ; yields the recorded call
Result: label 0

Q: // param item: Cn1c(-c2cccs2)cc(-c2cccs2)c1-c1cccs1 ; yields the recorded call
Result: label 0

Q: // param item: CC[C@@]1(CCC(=O)NCCc2c[nH]c3ccccc23)CCC(=O)N2CCc3c([nH]c4ccccc34)[C@H]21 ; yields the recorded call
Result: label 0

Q: // param item: Cc1cc(=O)n2nc(CSc3nnc(N)s3)sc2n1 ; yields the recorded call
Result: label 0

Q: // param item: CC1(C)CC(=O)C(C(c2cccc(O)c2O)C2C(=O)CC(C)(C)CC2=O)C(=O)C1 ; yields the recorded call
Result: label 0

Q: // param item: COc1ccc(/N=N/C(=N\c2ccccc2)c2ccc(N(CCC#N)CCC#N)cc2)cc1 ; yields the recorded call
Result: label 0

Q: // param item: CCCCCCCCC#CCCCCCCC(F)C(=O)O (configuration not stated) ; yields the recorded call
Result: label 0

Q: // param item: Cc1ccc([N+](=O)[O-])c2c(NCCCN(C)C)ccnc12 ; yields the recorded call
Result: label 0

Q: // param item: CC(NC(=O)/C(=C/c1ccccc1O)NC(=O)c1ccccc1)C(=O)O (configuration not stated) ; yields the recorded call
Result: label 0

Q: // param item: COc1cc(-c2oc3ccccc3c(=O)c2O)cc(OC)c1OC ; yields the recorded call
Result: label 0

###

# Tested on: K562
# ASSAY_REMARKS: NCI tumour cell line growth inhibition, 48 h
Active and inactive are the calls of the source. Cut-off read from the data, not from the text of the source: active = GI50 up to about 1.1 µM and inactive = higher.
Result category, one only: true (1) for active, false (0) for inactive

Q: // param item: COc1ccc(C2S/C(=C\c3ccccc3)C(=O)N2NC(=O)Cc2ccccc2)cc1 (stereo unspecified) ; yields the recorded call
Result: false (0)

Q: // param item: CC1=C(O)C(=O)C=C2C1=CC=C1[C@@]2(C)CC[C@@]2(C)[C@@H]3C[C@](C)(C(=O)O)CC[C@]3(C)CC[C@]12C ; yields the recorded call
Result: true (1)

Q: // param item: O=C1C2CN(Cc3ccccc3)CC1CN(CC1CC1)C2 ; yields the recorded call
Result: false (0)

Q: // param item: S=c1[nH]c(=S)c2nnn(-c3ccccc3)c2[nH]1 ; yields the recorded call
Result: false (0)

Q: // param item: Cc1ccc(S(=O)(=O)N/N=C2/CC[C@H](C(C)(C)C)C[C@@H]2C)cc1 ; yields the recorded call
Result: false (0)

Q: // param item: COc1cc(C2c3cc4c(cc3[C@H](NC(=O)c3cccs3)C3COC(=O)[C@H]23)OCO4)cc(OC)c1OC (stereo partly specified) ; yields the recorded call
Result: true (1)

Q: // param item: O=C(O)CCCNS(=O)(=O)c1ccc2ccccc2c1 ; yields the recorded call
Result: false (0)

Q: // param item: C[C@@H]1CC[C@@H]2[C@@H](C1)O[C@@H]([C@@H](C)OCc1ccccc1)SC2(C)C ; yields the recorded call
Result: false (0)

Q: // param item: Cc1ccc([N+](=O)[O-])c2c(NCCCN(C)C)ccnc12 ; yields the recorded call
Result: false (0)

Q: // param item: O=C1CCc2ccc(O)c(c2)Oc2ccc(cc2)[C@@H]2O[C@@H]2CO1 ; yields the recorded call
Result: false (0)

Q: // param item: Cc1c(C(=O)CC(=O)C(=O)Nc2ccc(Cl)cc2)[n+]([O-])c2ccccc2[n+]1[O-] ; yields the recorded call
Result: false (0)

Q: // param item: COC(=O)C12OCC34C(CC5C(C)=C(O)C(=O)CC5(C)C3C(O)C1O)OC(=O)C(OC(=O)C=C(C)C)C24 (stereo unspecified) ; yields the recorded call
Result: false (0)

Q: // param item: CC(C)NC(=O)OCc1nnn2c1C(OC(=O)NC(C)C)CC2 (stereo unspecified) ; yields the recorded call
Result: false (0)

Q: // param item: CC1(c2cccc(C3CCC4(C=CC3=O)OCCO4)c2)OCCO1 (stereo unspecified) ; yields the recorded call
Result: false (0)

Q: // param item: CC(=O)Nc1ccc2nc(-c3cccc(F)c3)cc(O)c2c1 ; yields the recorded call
Result: false (0)

Q: // param item: NNC(=O)Cc1cccnc1 ; yields the recorded call
Result: false (0)

Q: // param item: OCC#CCNCl ; yields the recorded call
Result: false (0)

Q: // param item: O=C1/C(=C2\SCC(=O)N2c2ccccc2)SC(=S)N1c1ccccc1 ; yields the recorded call
Result: false (0)

Q: // param item: CCN(CC)c1ccc2c(c1)Nc1cc(=C(C#N)C#N)c3ccccc3c1=N2 ; yields the recorded call
Result: false (0)

Q: // param item: O=C(O)c1cc2ccccc2c2c1C(=O)c1ccccc1-2 ; yields the recorded call
Result: false (0)

Q: // param item: O=C(NCc1ccccc1)c1cc2ccc(O)c(O)c2cn1 ; yields the recorded call
Result: false (0)

###

# Tested on: SK-MEL-28
# ASSAY_REMARKS: NCI tumour cell line growth inhibition, 48 h
Calls of active or inactive are those of the source. Cut-off read from the data, not from the text of the source: active = GI50 up to about 1.1 µM and inactive = higher.
ENDPOINT_NAME: GI50

compound C=CC(Cl)(CBr)CCC(Br)C(C)(C)Cl (configuration not stated) , GI50 observed: 17.3 µM (inactive)

compound O=C1CCc2ccc(O)c(c2)Oc2ccc(cc2)[C@@H]2O[C@@H]2CO1 , GI50 observed: 49.2 µM (inactive)

compound Nc1cc2ncnc(Nc3cccc(Br)c3)c2cn1 , GI50 observed: 71.9 µM (inactive)

compound Cc1csc2c(P(=O)(OC(C)C)OC(C)C)c(-c3ccccc3)cn12 , GI50 observed: 17.7 µM (inactive)

compound CCc1cccc(C)c1NC(=O)C1=C(C)NC(C)=C(C(=O)Nc2c(C)cccc2CC)C1c1ccc2c(c1)OCO2 , GI50 observed: 15.6 µM (inactive)

compound C[C@]12CC[C@H](O)CC1=CC[C@@H]1[C@@H]2CC[C@]2(C)c3nc(Cl)ccc3C[C@@H]12 , GI50 observed: > 64.1 µM (inactive)

compound O=C(NCc1ccccc1)c1cc2ccc(O)c(O)c2cn1 , GI50 observed: 16.4 µM (inactive)

compound CCCCCCCCCCCCCCCC(=O)OCC(C[As](=O)(O)O)OC(=O)CCCCCCCCCCCCCCC (configuration not stated) , GI50 observed: > 100 µM (inactive)

compound COc1cc2c(cc1OC)C13CCN4CC5=CCOC6CC(=O)N2C1C6C5CC43O (configuration not stated) , GI50 observed: > 100 µM (inactive)

compound Cc1c(C(=O)CC(=O)C(=O)Nc2ccc(Cl)cc2)[n+]([O-])c2ccccc2[n+]1[O-] , GI50 observed: > 100 µM (inactive)

compound NC(=O)NCCSC1CCCCC1O (configuration not stated) , GI50 observed: > 100 µM (inactive)

compound CN(C)c1ccc(/C=C(\NC(=O)c2ccccc2)C2NC(Cc3c[nH]c4ccccc34)C(=O)O2)cc1 (configuration not stated) , GI50 observed: > 100 µM (inactive)

compound Cc1c(OCc2cccc3ccccc23)ccc2c(O)cc(=S)oc12 , GI50 observed: 43.6 µM (inactive)

compound Cc1ccsc1/C=N/Nc1cnccn1 , GI50 observed: > 100 µM (inactive)

compound COc1ccc(C2OC(N)=C(C#N)C3=C2CCCC3C)cc1OC (configuration not stated) , GI50 observed: > 100 µM (inactive)

compound CN(C)CCNC(=O)c1cccc2[nH]c(-c3ccccn3)nc12 , GI50 observed: 36.6 µM (inactive)

compound NC(=O)NNC(=O)CCn1[nH]c(=O)c(Cl)c(Cl)c1=O , GI50 observed: > 100 µM (inactive)

compound CCOc1ccc(N/C(=C(/C(Cl)=C(/Cl)N(CC)CC)[N+](=O)[O-])n2nnc3ccccc32)cc1 , GI50 observed: 20 µM (inactive)

compound COC(=O)/C=C/C1(O)C=CC(=O)C=C1 , GI50 observed: 3.44 µM (inactive)

compound N#Cc1c(-c2ccc(Cl)cc2)cc(-c2ccc(Nc3ccnc4cc(C(F)(F)F)ccc34)cc2)nc1N , GI50 observed: 22.1 µM (inactive)

compound CC(C)(C)N/N=C(\C(=O)Nc1nnc(S)[nH]1)C1C(=O)Nc2ccccc2[S+]1[O-] (configuration not stated) , GI50 observed: > 100 µM (inactive)

compound O=c1[nH]c2nc3ccccc3c(=O)n2nc1Cc1ccccc1 , GI50 observed: > 100 µM (inactive)
